Molecular target: ER in T47D cells (Homo sapiens (Human), UniProt P03372)
Sequence (P03372 whole entry): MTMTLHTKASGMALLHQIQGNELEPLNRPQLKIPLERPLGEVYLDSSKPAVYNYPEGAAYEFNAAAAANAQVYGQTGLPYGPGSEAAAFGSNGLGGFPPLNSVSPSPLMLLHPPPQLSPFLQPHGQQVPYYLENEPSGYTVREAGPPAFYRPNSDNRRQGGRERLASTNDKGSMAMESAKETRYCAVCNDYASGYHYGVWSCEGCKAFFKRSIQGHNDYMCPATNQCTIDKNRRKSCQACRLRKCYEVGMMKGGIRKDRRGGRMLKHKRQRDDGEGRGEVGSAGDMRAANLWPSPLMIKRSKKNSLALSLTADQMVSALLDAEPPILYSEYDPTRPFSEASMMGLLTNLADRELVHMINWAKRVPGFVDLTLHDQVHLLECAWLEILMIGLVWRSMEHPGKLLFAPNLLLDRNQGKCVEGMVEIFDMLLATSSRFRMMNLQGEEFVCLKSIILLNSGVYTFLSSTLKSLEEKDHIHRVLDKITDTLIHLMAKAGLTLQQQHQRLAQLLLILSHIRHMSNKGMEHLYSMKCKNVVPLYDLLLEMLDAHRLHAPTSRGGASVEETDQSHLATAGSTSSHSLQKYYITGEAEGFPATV
Assay: In-cell Western (ICW) ER degradation assay in T47D cells
Format: cell-based
Settings: maximal ER degradation, 16 hrs treatment, read-out: T47D Dmax
From the text: In-cell Western (ICW) assays in MCF-7 and T47D cell lines. Day 3: After 16 hrs of compounds treatment, cells were fixed by 4% PFA and permeabilized with elution buffer (0.1% Triton X-100 in 1% PBS Solution). Subsequently, cells were blocked with Intercept (PBS) Blocking Buffer (Li-COR, Odyssey Blocking Buffer), and were stained with ER (1:500, Cell signaling) primary antibody for overnight at cold room. […]

[
  {
    "molecule": "COc1cc(N2CCC3(CC2)C[C@@H](CN2CCN4c5cc6c(cc5OC[C@@H]4C2)C(=O)N([C@H]2CCC(=O)NC2=O)C6)CO3)ccc1[C@@H]1c2ccc(O)cc2CC[C@@H]1c1ccccc1 (single isomer, unassigned)",
    "Dmax": "> 75%"
  },
  {
    "molecule": "O=C1CC[C@H](N2Cc3cc4c(cc3C2=O)OC[C@@H]2CN(C[C@@H]3COC5(C3)CN(c3ccc([C@@H]6c7ccc(O)cc7CC[C@@H]6c6ccccc6)cc3)C5)CCN42)C(=O)N1",
    "Dmax": "> 75%"
  },
  {
    "molecule": "COc1cc(N2CCC3(CC2)CC(CN2CCC(c4ccc(N[C@@H]5CCC(=O)NC5=O)cc4)CC2)C3)ccc1[C@@H]1c2ccc(O)cc2CC[C@@H]1c1ccccc1 (single isomer, unassigned)",
    "Dmax": "50 to 75%"
  },
  {
    "molecule": "O=C1CC[C@H](N2Cc3c(ccc4c3OC[C@H]3CN(C[C@@H]5COC6(C5)CN(c5ccc([C@@H]7c8ccc(O)cc8CC[C@@H]7c7ccccc7)cc5)C6)CCN43)C2=O)C(=O)N1 (single isomer, unassigned)",
    "Dmax": "> 75%"
  },
  {
    "molecule": "O=C1CC[C@@H](Nc2ccc(C3CCN(CC4CC5(CCN(c6ccc([C@@H]7c8ccc(O)cc8CC[C@@H]7c7ccccc7)cc6)CC5)C4)CC3)cc2)C(=O)N1 (single isomer, unassigned)",
    "Dmax": "50 to 75%"
  },
  {
    "molecule": "O=C1CC[C@H](N2Cc3cc4c(cc3C2=O)OC[C@@H]2CN(CC3CCC5(CC3)CN(c3ccc([C@@H]6c7ccc(O)cc7CC[C@@H]6c6ccccc6)cn3)C5)CCN42)C(=O)N1",
    "Dmax": "50 to 75%"
  },
  {
    "molecule": "COc1cc(N2CCC3(CC2)CC(CN2CCC(c4ccc(N[C@H]5CCC(=O)NC5=O)cc4F)CC2)C3)ccc1[C@@H]1c2ccc(O)cc2CC[C@@H]1c1ccccc1 (single isomer, unassigned)",
    "Dmax": "50 to 75%"
  },
  {
    "molecule": "COc1cc(N2CCC(CN3CCC(c4ccc(N[C@H]5CCC(=O)NC5=O)cc4)CC3)CC2)ccc1[C@@H]1c2ccc(O)cc2CC[C@@H]1c1ccccc1 (single isomer, unassigned)",
    "Dmax": "25 to 50%"
  },
  {
    "molecule": "O=C1CC[C@H](N2Cc3cc4c(cc3C2=O)OC[C@H]2CN(C[C@H]3COC5(CCN(c6ccc([C@H]7c8ccc(O)cc8CC[C@H]7c7ccccc7)cc6)CC5)C3)CCN42)C(=O)N1 (single isomer, unassigned)",
    "Dmax": "50 to 75%"
  }
]

The reported measurements were obtained from patent US20260028354A1.
